# Method description: in vivo
# Assay setup: rat, po
Value type: LD50

Exam item: Sample CC(COc1ccccc1)NC(C)C(O)c1ccc(OC(=O)C(C)(C)C)cc1 (stereo not shown) [LR 693] — what was its LD50?
Marked response: > 5000 mg/kg
